- SYSTEM: T1, MprF protein of Staphylococcus aureus (Staphylococcus aureus, UniProt Q2G2M2 1-840)
- T1 construct: Presented on whole S. aureus cells (Protein A deletion mutant, delta spa; SA113 delta spa in the functional assays); also called MprF on S. aureus
- T1 sequence: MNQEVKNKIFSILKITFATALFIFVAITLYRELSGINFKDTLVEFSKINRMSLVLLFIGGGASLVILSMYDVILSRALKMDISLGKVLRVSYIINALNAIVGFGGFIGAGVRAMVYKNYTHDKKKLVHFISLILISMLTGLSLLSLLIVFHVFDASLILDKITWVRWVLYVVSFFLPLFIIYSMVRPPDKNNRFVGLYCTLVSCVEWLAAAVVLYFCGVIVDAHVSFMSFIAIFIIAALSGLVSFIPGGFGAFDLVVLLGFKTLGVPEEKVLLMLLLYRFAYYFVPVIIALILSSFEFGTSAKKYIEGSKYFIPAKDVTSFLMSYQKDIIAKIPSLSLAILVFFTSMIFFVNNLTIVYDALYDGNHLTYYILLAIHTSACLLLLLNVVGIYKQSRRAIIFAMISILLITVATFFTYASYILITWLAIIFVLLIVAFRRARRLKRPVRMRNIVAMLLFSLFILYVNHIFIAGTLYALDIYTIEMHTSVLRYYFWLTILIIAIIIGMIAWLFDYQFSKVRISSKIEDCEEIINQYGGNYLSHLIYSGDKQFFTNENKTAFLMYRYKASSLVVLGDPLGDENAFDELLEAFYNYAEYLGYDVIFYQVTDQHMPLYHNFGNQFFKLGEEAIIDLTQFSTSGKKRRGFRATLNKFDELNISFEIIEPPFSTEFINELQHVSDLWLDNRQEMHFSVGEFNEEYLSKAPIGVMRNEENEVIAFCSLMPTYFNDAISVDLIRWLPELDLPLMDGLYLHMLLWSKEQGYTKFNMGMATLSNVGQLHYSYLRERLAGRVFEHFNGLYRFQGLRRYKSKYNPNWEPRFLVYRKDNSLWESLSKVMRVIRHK
- EXPERIMENT NOTES: whole cell ELISA on S. aureus; E. coli as negative control
PARAMETER MEASURED: binding result

{"BINDER": "M-L4 (antibody, V domains shown, Framework VH3-23 kappa 1) VH: EVQLLESGGGLVQPGGSLRLSCAASGFTFRSYAMSWVRQAPGKGLEWVSIISYDGSSTYYADSVKGRFTISRDNSKNTLYLQMNSLRAEDTAVYYCARTATSGSRGYFDYWGQGTLVTVSS VL: DIQMTQSPSSLSASVGDRVTITCRASQDISSWLNWYQQKPGKAPKLLIFGASTLQSGVPSRFSGSGSGTDFTLTISSLQPEDFATYYCQQHYTSPVTFGQGTKVEIKR", "RECORDED RESULT": "binds"}
{"BINDER": "M-C5.2 (antibody, V domains shown, Framework VH3-23 kappa 1; also called M-05.2) VH: EVQLLESGGGLVQPGGSLRLSCAASGFTFSSYAVHWVRQAPGKGLEWVSVISGRGGSTYYADSVKGRFTISRDNSKNTLYLQMNSLRAEDTAVYYCARDHGYFDYWGQGTLVTVSS VL: DIQMTQSPSSLSASVGDRVTITCRASQTISNHLGWYQQKPGKAPKLLIYTASNLQSGVPSRFSGSGSGTDFTLTISSLQPEDFATYYCQQYSHSSYTFGQGTKVEIKR", "RECORDED RESULT": "binds"}
